Cited source for all entries: patent US20220162192A1

Property: IC50; scope: individual molecules
molecular target: Recombinant wild type LRRK2 protein (Homo sapiens); construct: purchased Life Technologies PR8604B; assay: LanthaScreen Kinase Activity Assay (TR-FRET), wild type LRRK2; type: biochemical; conditions: class symbols; 25 μM ATP, 400 nM LRRKtide, 2.9 nM kinase, 60 min at room temperature; read-out: LRRK2 WT IC50
Sequence (Q5S007 whole entry): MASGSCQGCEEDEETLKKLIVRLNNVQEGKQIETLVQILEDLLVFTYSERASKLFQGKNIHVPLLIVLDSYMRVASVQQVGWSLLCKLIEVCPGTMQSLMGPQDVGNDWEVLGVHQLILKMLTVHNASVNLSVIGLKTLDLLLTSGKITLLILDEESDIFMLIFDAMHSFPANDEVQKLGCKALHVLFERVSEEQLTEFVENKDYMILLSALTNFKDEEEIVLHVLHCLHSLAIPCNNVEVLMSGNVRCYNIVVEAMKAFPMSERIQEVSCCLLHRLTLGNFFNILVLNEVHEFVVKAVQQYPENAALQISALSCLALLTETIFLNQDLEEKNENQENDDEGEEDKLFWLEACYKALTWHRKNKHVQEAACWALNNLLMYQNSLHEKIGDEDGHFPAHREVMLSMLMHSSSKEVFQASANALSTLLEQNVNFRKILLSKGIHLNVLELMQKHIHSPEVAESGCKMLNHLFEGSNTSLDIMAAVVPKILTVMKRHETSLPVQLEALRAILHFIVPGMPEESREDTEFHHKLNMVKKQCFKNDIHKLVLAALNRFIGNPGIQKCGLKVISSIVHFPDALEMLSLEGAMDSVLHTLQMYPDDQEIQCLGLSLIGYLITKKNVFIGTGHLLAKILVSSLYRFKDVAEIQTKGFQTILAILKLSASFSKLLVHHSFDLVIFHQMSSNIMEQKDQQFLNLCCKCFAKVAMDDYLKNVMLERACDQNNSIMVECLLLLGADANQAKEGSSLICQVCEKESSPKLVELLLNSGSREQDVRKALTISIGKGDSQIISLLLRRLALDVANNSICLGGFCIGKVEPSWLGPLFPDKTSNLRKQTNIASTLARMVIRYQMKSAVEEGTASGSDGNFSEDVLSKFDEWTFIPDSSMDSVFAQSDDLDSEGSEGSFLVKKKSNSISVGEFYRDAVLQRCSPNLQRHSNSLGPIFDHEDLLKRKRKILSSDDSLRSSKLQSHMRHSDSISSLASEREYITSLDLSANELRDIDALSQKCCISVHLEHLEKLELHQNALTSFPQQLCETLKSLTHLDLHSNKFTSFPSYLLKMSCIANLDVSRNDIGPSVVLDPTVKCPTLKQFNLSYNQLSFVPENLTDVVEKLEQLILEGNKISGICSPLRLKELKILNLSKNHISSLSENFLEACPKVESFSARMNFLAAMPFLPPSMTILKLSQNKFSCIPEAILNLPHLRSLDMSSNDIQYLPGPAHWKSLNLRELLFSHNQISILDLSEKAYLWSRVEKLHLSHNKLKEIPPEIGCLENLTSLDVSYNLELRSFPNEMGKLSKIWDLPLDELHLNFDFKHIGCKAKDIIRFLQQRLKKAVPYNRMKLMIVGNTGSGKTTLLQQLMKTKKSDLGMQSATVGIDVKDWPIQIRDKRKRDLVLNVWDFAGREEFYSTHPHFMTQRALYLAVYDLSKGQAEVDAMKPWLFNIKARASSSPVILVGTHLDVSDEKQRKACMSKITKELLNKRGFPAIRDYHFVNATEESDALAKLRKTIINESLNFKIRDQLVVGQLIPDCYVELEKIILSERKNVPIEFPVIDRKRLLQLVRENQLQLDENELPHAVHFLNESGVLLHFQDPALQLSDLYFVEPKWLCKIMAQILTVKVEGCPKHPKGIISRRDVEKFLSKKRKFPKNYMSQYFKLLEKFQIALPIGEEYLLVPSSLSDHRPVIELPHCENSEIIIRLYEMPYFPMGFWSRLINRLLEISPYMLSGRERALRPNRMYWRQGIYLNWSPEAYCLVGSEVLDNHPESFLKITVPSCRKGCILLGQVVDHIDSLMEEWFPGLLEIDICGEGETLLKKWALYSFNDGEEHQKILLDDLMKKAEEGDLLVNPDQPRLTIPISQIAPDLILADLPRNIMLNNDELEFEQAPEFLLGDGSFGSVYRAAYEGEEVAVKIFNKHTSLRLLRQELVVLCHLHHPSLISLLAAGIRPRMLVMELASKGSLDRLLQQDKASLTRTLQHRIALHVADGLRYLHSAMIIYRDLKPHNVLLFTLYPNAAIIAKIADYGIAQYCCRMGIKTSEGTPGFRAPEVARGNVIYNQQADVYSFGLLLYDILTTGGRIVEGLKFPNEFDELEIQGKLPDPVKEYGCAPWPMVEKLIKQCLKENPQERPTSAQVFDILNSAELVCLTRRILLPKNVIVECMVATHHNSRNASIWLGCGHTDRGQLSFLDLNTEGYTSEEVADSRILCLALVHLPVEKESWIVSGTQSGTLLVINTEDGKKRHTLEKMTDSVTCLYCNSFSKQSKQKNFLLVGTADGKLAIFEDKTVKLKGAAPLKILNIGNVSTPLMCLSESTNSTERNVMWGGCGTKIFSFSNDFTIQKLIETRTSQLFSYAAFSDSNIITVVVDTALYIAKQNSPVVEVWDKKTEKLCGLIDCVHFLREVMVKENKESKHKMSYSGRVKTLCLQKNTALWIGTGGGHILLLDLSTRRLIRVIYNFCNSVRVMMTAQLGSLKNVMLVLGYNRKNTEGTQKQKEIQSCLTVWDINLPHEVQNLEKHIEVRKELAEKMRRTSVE
ASSAY ENDPOINT: IC50

molecule="O=C(Nc1ccc2[nH]nc(-c3ccccc3)c2c1)c1cc2[nH]ncc2cc1Br [Example 24]" target_desc="Recombinant wild type LRRK2 protein (Homo sapiens)" observed_value="≤ 100 nM"
molecule="Cn1ncc2cc(C(=O)Nc3ccc4[nH]nc(-c5ccoc5)c4c3)ccc21 [Example 133]" target_desc="Recombinant wild type LRRK2 protein (Homo sapiens)" observed_value="≤ 100 nM"
molecule="COc1n[nH]c2ccc(NC(=O)c3c(F)cc4c(cnn4C)c3F)cc12 [Example 106]" target_desc="Recombinant wild type LRRK2 protein (Homo sapiens)" observed_value="1000 to 10000 nM"
molecule="O=C(Nc1ccc2[nH]nc(-c3ccoc3)c2c1)c1ccn2nccc2n1 [Example 127]" target_desc="Recombinant wild type LRRK2 protein (Homo sapiens)" observed_value="100 to 1000 nM"
molecule="COc1cncc(-c2n[nH]c3ccc(NC(=O)c4c(F)cc5c(cnn5C)c4F)cc23)c1 [Example 82]" target_desc="Recombinant wild type LRRK2 protein (Homo sapiens)" observed_value="≤ 100 nM"
molecule="Cn1ncc2c1CCC(C(=O)Nc1ccc3[nH]nc(-c4ccoc4)c3c1)C2 (single isomer, unassigned) [Example 161a]" target_desc="Recombinant wild type LRRK2 protein (Homo sapiens)" observed_value="≤ 100 nM"
molecule="Cc1cc(-c2n[nH]c3ccc(NC(=O)c4c(F)cc5c(cnn5C)c4F)cc23)c(C)o1 [Example 101]" target_desc="Recombinant wild type LRRK2 protein (Homo sapiens)" observed_value="100 to 1000 nM"
molecule="Cc1cn2cncc2cc1C(=O)Nc1ccc2[nH]nc(-c3ccoc3)c2c1 [Example 152]" target_desc="Recombinant wild type LRRK2 protein (Homo sapiens)" observed_value="≤ 100 nM"
